Origin of measurements: patent US20220380383A1

- Test system: PC12 mHTTQ103 cells
- PROCEDURE_DETAILS: Rescue of PC12 cells from mHTTQ103-induced cell death
- Assay type: cell-based, rat
- CONDITION_INFO: Rattus norvegicus, PC-12; rescue from mHTTQ103 induced cell death; read-out: PC12 cells EC50
Grouping rule (EC50): low (below 500 nM), intermediate (500 nM to below 3000 nM), high (3000 nM or more)

Example results:
Cc1ccc2s[nH]c(=O)c2c1 [LC-61, 5-Methylbenzo[d]isothiazol-3(2H)-one] = intermediate
CC(C)(C)OC(=O)NC1CCN(Cn2sc3ccccc3c2=O)CC1 = low
O=c1c2ccccc2sn1CN1CCC(N2CCCCC2)CC1 = low
O=c1c2ccccc2sn1CN1CC[C@@H](O)C1 = low
Cc1cc(C)c2c(=O)n(CN3CCN(C(=O)C4CC4)CC3)sc2n1 = high

Which class holds O=c1c2ccccc2sn1CN1CCC(CO)CC1 ?
low

Moving on to the next compound: Cc1nnc2sn(CN3CCN(C(=O)C4CC4)CC3)c(=O)c2c1C
high

And what about the compound Cc1cc(C)c2c(=O)[nH]sc2n1 ?
high

Further, for Cc1ccc2sn(CN3CCN(C(=O)C4CC4)CC3)c(=O)c2c1 ?
intermediate

* * *

- Tested on: PC12 mHTTQ103 cells
- PROCEDURE_DETAILS: Rescue of PC12 cells from mHTTQ103-induced cell death
- Format: cell-based, rat
- CONDITION_INFO: Tables 5-13; PC12 cells
OBSERVED_PROPERTY: Max Viability (%)
Please reply with the bare figure in % and do not write the unit itself.

S=c1ssc2ccccc12 [LC-49] = 9

// below: Max Viability (%) requested for another compound
What value of Max Viability (%) has been recorded for this entry: O=c1c2cccc(F)c2sn1CN1CCN(Cn2sc3c(F)cccc3c2=O)CC1 [LC-69]
46

* * *

- System: PC12 mHTTQ103 cells
- PROCEDURE_DETAILS: Rescue of PC12 cells from mHTTQ103-induced cell death
- Format: cell-based, rat
- CONDITION_INFO: Rattus norvegicus, PC-12
OBSERVED_PROPERTY: EC50 (nM)
Numeric only. Scale: nM

# value lookup — system PC12 mHTTQ103 cells, readout EC50, item O=c1c2ccccc2sn1-c1ccccc1
1130

* * *

- TARGET_SYSTEM: human catalytic PDI A1 a domain (PDIa) (Homo sapiens, UniProt P07237)
- Construct: made in house; host or cells: Escherichia coli BL21-Gold (DE3)
- Sequence (P07237 18-134): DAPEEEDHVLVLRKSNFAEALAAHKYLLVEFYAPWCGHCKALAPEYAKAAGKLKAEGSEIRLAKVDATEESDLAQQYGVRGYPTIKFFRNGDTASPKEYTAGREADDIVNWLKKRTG
- PROCEDURE_DETAILS: Isothermal titration calorimetry (ITC) binding to PDIa
- CONDITION_INFO: Tables 5-13; NA = not active; read-out: Kd
OBSERVED_PROPERTY: pKd
Please note pKd is a logarithmic value: minus log10 of concentration in mol/L. Answer with that number alone.

C[C@H](c1ccccc1)n1sc2ccccc2c1=O [LC-29] = 6.18
Cc1ccc2sn(CN3CCN(C(=O)C4CC4)CC3)c(=O)c2c1 [LC-63] = 6.62
O=c1c2ccccc2sn1CN1CCC(CO)CC1 [LC-4] = 6.58

State the recorded pKd for this entry: CC(C)(C)OC(=O)N1CCN(Cn2sc3ccccc3c2=O)CC1 [LC-10]
6.91

Similarly, O=c1c2ccccc2sn1CN1CC[C@@H](O)C1 [LC-65] ?
6.79

Same question for Cc1cc(C)c2c(=O)[nH]sc2n1 [LC-50] please.
5.42

And what about the compound O=c1c2cccc(F)c2sn1CN1CCN(Cn2sc3c(F)cccc3c2=O)CC1 [LC-69] ?
6.15

Okay, and O=c1c2ccccc2sn1CN1CCN(c2ncccn2)CC1 [LC-12] ?
6.85

Same question, O=c1c2cccnc2sn1CCN1CCOCC1 [LC-55] this time
7.70

Then this compound: O=C(C1CC1)N1CCN(Cn2sc3ccc(Cl)cc3c2=O)CC1 [LC-15]
6.94

Field entry: O=c1c2ccccc2sn1CN1CCCCC1 [LC-1]
6.97

CN1CCN(Cn2sc3ccccc3c2=O)CC1 [LC-2] ?
6.87

* * *

- Tested on: PC12 mHTTQ103 cells
- PROCEDURE_DETAILS: Rescue of PC12 cells from mHTTQ103-induced cell death
- Format: cell-based, rat
- CONDITION_INFO: Tables 5-13; PC12 cells
OBSERVED_PROPERTY: Max Viability (%)
Quick note: give the figure in %, leave out the unit.

Reference set (3 entries):
O=c1c2ccccc2sn1Cc1ccc(Br)cc1 [LC-26] = 38
O=c1c2cccnc2sn1CCN1CCOCC1 [LC-55] = 13
O=C(Nc1ccccc1)n1sc2ccccc2c1=O [LC-6] = 66

Look up Max Viability (%) for this molecule: O=c1c2ccccc2sn1CN1CC[C@@H](O)C1 [LC-65]
77

Next: O=c1c2ccccc2sn1CN1CCCCC1 [LC-1]
67

For O=c1c2cccnc2sn1CN1CCN(Cn2sc3ncccc3c2=O)CC1 [LC-68] then?
36

* * *

Recorded EC50 by entry
- Test system: PC12 mHTTQ103 cells
- PROCEDURE_DETAILS: Rescue of PC12 cells from mHTTQ103-induced cell death
- Format: cell-based, rat
- CONDITION_INFO: Rattus norvegicus, PC-12; rescue from mHTTQ103 induced cell death; read-out: PC12 cells EC50
Just the number please, in nM, no unit attached.

As a guide, the following entries are already answered.
O=c1c2cccc(F)c2sn1CN1CCN(Cn2sc3c(F)cccc3c2=O)CC1 = 1970
O=C(C1CC1)N1CCN(Cn2sc3ccccc3c2=O)CC1 = 352
Cc1ccc2c(=O)[nH]sc2c1 [LC-60, 6-Methylbenzo[d]isothiazol-3(2H)-one] = 562

I have this compound here, CC(C)(C)OC(=O)N1CCN(Cn2sc3ccccc3c2=O)CC1 , and I need its recorded EC50.
561

Another compound to look at: Cc1ccc2c(=O)n(CN3CCN(C(=O)C4CC4)CC3)sc2c1
1580

* * *

- Tested on: PC12 mHTTQ103 cells
- PROCEDURE_DETAILS: Rescue of PC12 cells from mHTTQ103-induced cell death
- Format: cell-based, rat
- CONDITION_INFO: Tables 5-13; PC12 cells
Measured Max Viability (%), listed per entry.
Answers without a unit are incomplete; give the number and then its unit.

Record excerpt, results attached:
O=C(C1CC1)N1CCN(Cn2sc3c(C(F)(F)F)cccc3c2=O)CC1 = 8%
CC(=O)c1ccc(N2CCN(Cn3sc4ccccc4c3=O)CC2)cc1 = 63%
O=c1c2ccccc2sn1-c1ccc(N2CCOCC2)cc1 = 28%
Cc1ccc2c(=O)n(CN3CCN(C(=O)C4CC4)CC3)sc2c1 = 54%

# lookup: Max Viability (%) of O=c1c2ccccc2sn1-c1ccccc1
31%

Lookup O=C(Nc1ccc(N2CCOCC2)cc1)c1ccccc1S
32%

Would you kindly repeat that for Cc1ccc2s[nH]c(=O)c2c1 [LC-61, 5-Methylbenzo[d]isothiazol-3(2H)-one] ?
65%

// query: O=C(C1CC1)N1CCN(Cn2sc3c(Cl)cccc3c2=O)CC1
7%

Another compound to look at: O=C(C1CC1)N1CCN(Cn2sc3ccc(Cl)cc3c2=O)CC1
57%

Now consider O=c1c2cccnc2sn1CCC1CCNCC1 .
14%

* * *

- TARGET_SYSTEM: human catalytic PDI A1 a domain (PDIa) (Homo sapiens)
- Construct: made in house; host or cells: Escherichia coli BL21-Gold (DE3)
- PROCEDURE_DETAILS: Isothermal titration calorimetry (ITC) binding to PDIa
- CONDITION_INFO: Tables 5-13; NA = not active; read-out: Kd
OBSERVED_PROPERTY: Kd (µM)
Give the value in µM but do not write µM after it.

Consider the reported Kd for these compounds:
Cc1ccc2s[nH]c(=O)c2c1 [LC-61, 5-Methylbenzo[d]isothiazol-3(2H)-one] = 0.267
Cc1ccc2c(=O)[nH]sc2c1 [LC-60, 6-Methylbenzo[d]isothiazol-3(2H)-one] = 0.347
O=c1c2ccccc2sn1CN1CCOCC1 = 0.253

API: the following record is the query input.
Which Kd reading was recorded for the compound O=c1[nH]sc2ccccc12 [BIT, benzoisothiazolone, reference compound] ?
0.143

* * *

- TARGET_SYSTEM: human catalytic PDI A1 a domain (PDIa) (Homo sapiens, UniProt P07237)
- Construct: made in house; host or cells: Escherichia coli BL21-Gold (DE3)
- PROCEDURE_DETAILS: Isothermal titration calorimetry (ITC) binding to PDIa
- CONDITION_INFO: read-out: ITC KD
Reported pKd values for the following molecules.
As a rule, pKd stands for the negative log10 of the concentration, concentration in M.

Cc1cc(C)c2c(=O)n(CN3CCN(Cn4sc5nc(C)cc(C)c5c4=O)CC3)sc2n1 = 5.42

Now for the molecule whose pKd we want.
Name the recorded pKd for O=c1c2ccccc2sn1CN1CCC(N2CCCCC2)CC1 .
5.92
